Give CC50 for every item shown.
assay_method_text: Cytotoxicity against human CEmx174 cells expressing LTR-GFP
Assay type: cell-based
Answers are plain numbers, in µM.

Below, each entry is followed by its recorded CC50 result.
>>> reading("CCOc1ccc(-c2nc3c(S(=O)(=O)c4cccc(Cl)c4)nnn3c3ccsc23)cc1")
61
>>> reading("O=S(=O)(c1cccc(Cl)c1)c1nnn2c1nc(-c1ccc(O)cc1)c1sccc12")
10

Can you give me CC50 for all of these, one by one?
1. O=S(=O)(c1cccc(Cl)c1)c1nnn2c1nc(N1CCOCC1)c1sccc12
2. COc1ccc(-c2nc3c(S(=O)(=O)c4cccc(Cl)c4)nnn3c3ccsc23)cc1

74
60

---

Task for the reader: assign each of the following compounds its reported CC50.
assay_method_text: Cytotoxicity against human CEmx174 cells expressing LTR-GFP
Type: cell-based

>>> reading("O=S(=O)(c1cccc(Cl)c1)c1nnn2c1nc(N1CCCCC1)c1sccc12")
"75 µM"
>>> reading("O=S(=O)(c1cccc(Cl)c1)c1nnn2c1nc(N1CCN(Cc3ccccc3)CC1)c1sccc12")
"> 50 µM"

# evaluate next
Could you share which CC50 value was measured for `CN(c1ccccc1)c1nc2c(S(=O)(=O)c3cccc(Cl)c3)nnn2c2ccsc12` ?
> 50 µM

---

For each record, write down the corresponding selectivity ratio.
assay_method_text: Therapeutic index, ratio of CC50 for human CEmx174 cells expressing LTR-GFP to EC50 for HIV1 LAI
protocol_conditions: read-out: Ratio CC50/EC50

Worked cases, answers included:
>>> reading("COCCNc1nc2c(S(=O)(=O)c3cccc(Cl)c3)nnn2c2ccsc12")
"> 26"
>>> reading("CN1CCN(c2nc3c(S(=O)(=O)c4cccc(Cl)c4)nnn3c3ccsc23)CC1")
"> 23"
>>> reading("O=S(=O)(c1cccc(OC(F)(F)F)c1)c1nnn2c1nc(N1CCOCC1)c1sccc12")
"> 5"
>>> reading("CCOC(=O)c1nnn2c1nc(N1CCOCC1)c1sccc12")
"> 62"

Next item in the queue.
// lookup selectivity ratio for `O=C(c1cccc(Cl)c1)c1nnn2c1nc(N1CCOCC1)c1sccc12`
> 53

---

assay_method_text: Therapeutic index, ratio of CC50 for human CEmx174 cells expressing LTR-GFP to EC50 for HIV1 LAI
protocol_conditions: read-out: Ratio CC50/EC50
Assign satisfied whenever selectivity ratio does not fall below 30; assign not satisfied whenever it does.

Answered examples (8):
>>> answer_label("O=S(=O)(c1cccc(Cl)c1)c1nnn2c1nc(-c1ccccc1)c1sccc12")
"satisfied"
>>> answer_label("O=S(=O)(c1cc(Cl)cc(Cl)c1)c1nnn2c1nc(N1CCOCC1)c1sccc12")
"not satisfied"
>>> answer_label("O=S(=O)(c1cccc(Cl)c1)c1nnn2c1nc(N1CCCCC1)c1sccc12")
"satisfied"
>>> answer_label("O=S(=O)(c1cccc(Cl)c1)c1nnn2c1nc(-c1cccc(Cl)c1)c1sccc12")
"satisfied"
>>> answer_label("O=S(=O)(c1cccc(Cl)c1)c1nnn2c1nc(N1CCCCCC1)c1sccc12")
"not satisfied"
>>> answer_label("COc1cccc(S(=O)(=O)c2nnn3c2nc(N2CCOCC2)c2sccc23)c1")
"satisfied"
>>> answer_label("COc1ccccc1-c1nc2c(S(=O)(=O)c3cccc(Cl)c3)nnn2c2ccsc12")
"satisfied"
>>> answer_label("O=C(Nc1cccc(Cl)c1)c1nnn2c1nc(N1CCOCC1)c1sccc12")
"satisfied"

Record `O=S(=O)(c1cccc(Cl)c1)c1nnn2c1nc(-c1ccccc1Cl)c1sccc12` ; criterion: selectivity ratio no lower than 30. Met?
satisfied

Is selectivity ratio for `O=S(=O)(c1cccc(Cl)c1)c1nnn2c1nc(N1CCN(Cc3ccccc3)CC1)c1sccc12` at or above 30?
satisfied

Could you verify whether the entry `O=S(=O)(c1cccc(Cl)c1)c1nnn2c1nc(-c1ccc(Cl)cc1)c1sccc12` shows selectivity ratio of no less than 30?
satisfied

Hi, just wondering whether `CCOc1ccc(-c2nc3c(S(=O)(=O)c4cccc(Cl)c4)nnn3c3ccsc23)cc1` shows selectivity ratio of 30 or higher.
satisfied

Check this molecule for selectivity ratio at or above 30: `COc1cccc(-c2nc3c(S(=O)(=O)c4cccc(Cl)c4)nnn3c3ccsc23)c1`
satisfied

Check this molecule for selectivity ratio at or above 30: `O=S(=O)(c1cccc(F)c1)c1nnn2c1nc(N1CCOCC1)c1sccc12`
satisfied

Test whether the molecule `O=S(=O)(c1ccc(Cl)cc1)c1nnn2c1nc(N1CCOCC1)c1sccc12` records selectivity ratio of 30 or higher.
not satisfied

Has `O=C(O)c1nnn2c1nc(N1CCOCC1)c1sccc12` a recorded selectivity ratio greater than or equal to 30?
not satisfied

Could you tell me if the measured selectivity ratio of `O=S(=O)(c1ccccc1Cl)c1nnn2c1nc(N1CCOCC1)c1sccc12` reaches 30 or more?
satisfied

Confirm if selectivity ratio reported for the molecule `Cc1ccc(-c2nc3c(S(=O)(=O)c4cccc(Cl)c4)nnn3c3ccsc23)cc1` is 30 or above.
satisfied
